# Lookup of reported inhibition at 10 µM keyed by entry
Molecular target: human KDR enzyme (Homo sapiens, UniProt P35968)
Construct: The cytoplasmic domain of the human KDR enzyme; GST; made in house; host or cells: SF21 insect cells (baculovirus)
Sequence (P35968 786-1356 limits assumed): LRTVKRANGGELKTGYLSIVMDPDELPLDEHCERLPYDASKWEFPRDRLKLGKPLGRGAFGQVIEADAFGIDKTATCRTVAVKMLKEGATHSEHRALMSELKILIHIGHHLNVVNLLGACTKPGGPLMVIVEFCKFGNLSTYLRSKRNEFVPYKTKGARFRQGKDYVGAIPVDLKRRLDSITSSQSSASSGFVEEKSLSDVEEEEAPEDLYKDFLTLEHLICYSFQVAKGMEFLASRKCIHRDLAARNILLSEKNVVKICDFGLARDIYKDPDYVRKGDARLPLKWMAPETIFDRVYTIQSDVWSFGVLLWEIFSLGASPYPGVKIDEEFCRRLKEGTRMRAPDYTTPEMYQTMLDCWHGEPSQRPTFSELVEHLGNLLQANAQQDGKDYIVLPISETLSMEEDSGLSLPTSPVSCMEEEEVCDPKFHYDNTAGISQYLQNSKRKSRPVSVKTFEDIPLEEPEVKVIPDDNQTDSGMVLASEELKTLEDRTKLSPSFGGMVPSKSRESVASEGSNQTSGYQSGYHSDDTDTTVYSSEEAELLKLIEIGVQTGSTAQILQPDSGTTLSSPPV
Experiment: KDR substrate (PLCγ) phosphorylation, scintillation assay
Type: biochemical
Settings: 10 μM; read-out: KDR % inhib at 10 μM
quantity.kind: inhibition at 10 µM

                                  smiles_str        quantity_kind  meas_value
 0  CN(C)c1ccc(-c2n[nH]c3ccc(NS(=O)(=O)c4ccccc4S(C)(=O)=O)cc23)cc1  inhibition at 10 µM          0%
 1  CC(=O)Nc1n[nH]c2ccc(NS(=O)(=O)c3cccc(F)c3)cc12  inhibition at 10 µM         24%
 2  O=S(=O)(Nc1ccc2[nH]nc(-c3ccccc3)c2c1)C1CCNCC1  inhibition at 10 µM         74%
 3  COc1ccc(-c2n[nH]c3ccc(NS(=O)(=O)c4ccccc4S(C)(=O)=O)cc23)c(OC)c1OC  inhibition at 10 µM         56%
 4  CS(=O)(=O)c1ccccc1S(=O)(=O)Nc1ccc2[nH]nc(-c3ccc(OC(F)(F)F)cc3)c2c1  inhibition at 10 µM         48%
 5  CCc1ccc(-c2n[nH]c3ccc(NS(=O)(=O)c4ccccc4S(C)(=O)=O)cc23)cc1  inhibition at 10 µM         56%
 6  COc1ccc(-c2n[nH]c3ccc(NS(=O)(=O)c4ccccc4S(C)(=O)=O)cc23)cc1  inhibition at 10 µM         87%
 7  CS(=O)(=O)c1ccccc1S(=O)(=O)Nc1ccc2[nH]nc(N)c2c1  inhibition at 10 µM         20%
 8  CS(=O)(=O)c1ccccc1S(=O)(=O)Nc1ccc2[nH]nc(-c3ccccc3)c2c1  inhibition at 10 µM         70%
 9  CS(=O)(=O)c1ccccc1S(=O)(=O)Nc1ccc2[nH]nc(CCc3ccc(Cl)cc3)c2c1  inhibition at 10 µM         36%
10  CC(=O)Nc1ccc(S(=O)(=O)Nc2ccc3[nH]nc(-c4ccccc4)c3c2)cc1Cl  inhibition at 10 µM         47%

====

We begin with a simple list: items and their reported inhibition at 10 µM.
Molecular target: human IGF1R cytoplasmic domain (Homo sapiens)
Construct: The human IGF1R cytoplasmic domain was cloned; made in house; host or cells: SF21 insect cells (baculovirus)
Sequence (P08069 960-1367 limits assumed): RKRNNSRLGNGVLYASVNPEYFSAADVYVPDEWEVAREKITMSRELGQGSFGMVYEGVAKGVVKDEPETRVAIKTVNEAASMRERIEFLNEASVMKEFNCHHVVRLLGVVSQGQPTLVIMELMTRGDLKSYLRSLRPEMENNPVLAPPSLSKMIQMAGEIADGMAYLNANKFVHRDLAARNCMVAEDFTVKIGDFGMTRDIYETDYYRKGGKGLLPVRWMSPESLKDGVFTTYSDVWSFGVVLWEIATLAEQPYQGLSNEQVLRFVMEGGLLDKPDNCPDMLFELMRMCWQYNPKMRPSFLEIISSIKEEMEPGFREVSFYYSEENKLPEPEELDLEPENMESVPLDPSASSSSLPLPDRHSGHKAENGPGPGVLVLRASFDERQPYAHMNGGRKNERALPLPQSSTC
Assay: IGF1R autophosphorylation inhibition, time resolved fluorescence (HTRF) assay
Format: biochemical
Settings: 10 μM; read-out: IGF1R % inhib at 10 μM
quantity.kind: inhibition at 10 µM (%)

>>> print(df.to_string())
                                 smiles_str  unit  meas_value
0  O=S(=O)(Nc1ccc2[nH]nc(-c3ccc(O)cc3)c2c1)c1ccccc1     %          89
1  CS(=O)(=O)c1ccccc1S(=O)(=O)Nc1ccc2[nH]nc(/C=C/c3ccccc3)c2c1     %          96
2  O=S(=O)(Nc1ccc2[nH]nc(-c3ccccc3)c2c1)c1ccccc1F     %          81

====

Each record here notes measured inhibition at 10 µM.
Molecular target: human KDR enzyme (Homo sapiens)
Construct: The cytoplasmic domain of the human KDR enzyme; GST; made in house; host or cells: SF21 insect cells (baculovirus)
Assay: KDR substrate (PLCγ) phosphorylation, scintillation assay
Format: biochemical
Details: 10 μM; read-out: KDR % inhib at 10 μM
quantity.kind: inhibition at 10 µM (%)

In [3]: df
Out[3]:
                                   molecule        quantity_kind  unit  meas_value
0  CS(=O)(=O)c1ccccc1S(=O)(=O)Nc1ccc2[nH]nc(-c3cccc(F)c3F)c2c1 [Example 221]  inhibition at 10 µM     %          60
1  CS(=O)(=O)c1ccccc1S(=O)(=O)Nc1ccc2[nH]nc(-c3cccc(Cl)c3Cl)c2c1 [Example 208]  inhibition at 10 µM     %          25
2  CS(=O)(=O)c1ccccc1S(=O)(=O)Nc1ccc2[nH]nc(-c3ccc4c(c3)OCO4)c2c1 [Example 196]  inhibition at 10 µM     %          73
3  Cc1cccc(-c2n[nH]c3ccc(NS(=O)(=O)c4ccccc4S(C)(=O)=O)cc23)c1 [Example 165]  inhibition at 10 µM     %          58
4  O=S(=O)(Nc1ccc2[nH]nc(-c3ccccc3)c2c1)c1cc(Cl)cc(Cl)c1 [Example 137]  inhibition at 10 µM     %          96
5  N#Cc1n[nH]c2ccc(NS(=O)(=O)c3cccc(F)c3)cc12 [Example 4]  inhibition at 10 µM     %          24
6  CS(=O)(=O)Nc1n[nH]c2ccc(NS(=O)(=O)c3cccc(F)c3)cc12 [Example 27]  inhibition at 10 µM     %          13
7  CS(=O)(=O)c1ccccc1S(=O)(=O)Nc1ccc2[nH]nc(-c3ccc(Br)cc3F)c2c1 [Example 212]  inhibition at 10 µM     %          47
8  CS(=O)(=O)c1ccc(-c2n[nH]c3ccc(NS(=O)(=O)c4ccccc4S(C)(=O)=O)cc23)cc1 [Example 220]  inhibition at 10 µM     %          88

====

Molecular target: Aurora2 kinase (Homo sapiens, UniProt O14965)
Construct: A complete recombinant Aurora2 enzyme; His tag (N); made in house; host or cells: E. coli
Sequence (O14965 whole entry): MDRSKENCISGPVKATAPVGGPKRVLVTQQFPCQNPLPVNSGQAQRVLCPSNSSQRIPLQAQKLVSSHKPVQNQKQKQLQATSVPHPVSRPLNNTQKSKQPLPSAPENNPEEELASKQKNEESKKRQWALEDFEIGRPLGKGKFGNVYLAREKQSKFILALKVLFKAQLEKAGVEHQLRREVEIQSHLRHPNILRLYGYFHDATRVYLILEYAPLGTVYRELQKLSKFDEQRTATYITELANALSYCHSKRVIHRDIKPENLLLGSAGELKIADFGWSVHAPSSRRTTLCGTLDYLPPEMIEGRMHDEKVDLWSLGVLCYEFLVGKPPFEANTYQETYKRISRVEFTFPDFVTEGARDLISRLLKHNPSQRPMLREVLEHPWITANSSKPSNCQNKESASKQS
Test: Aurora2 kinase radioactivity scintillation assay using nickel chelate (NuMA substrate)
Type: biochemical
Conditions: 10 μM; read-out: Aurora2 % inhib at 10 μM
inhibition at 10 µM listing for selected compounds.
quantity.kind: inhibition at 10 µM (%)

>>> print(df.to_string())
                                    compound                         target_under_test  meas_value
 0  CS(=O)(=O)c1ccccc1S(=O)(=O)Nc1ccc2[nH]nc(-c3ccc(F)c(Cl)c3)c2c1 [Example 167]  Aurora2 kinase (Homo sapiens, UniProt O14965)          90
 1  CS(=O)(=O)c1ccccc1S(=O)(=O)Nc1ccc2[nH]nc(-c3ccsc3)c2c1 [Example 51]  Aurora2 kinase (Homo sapiens, UniProt O14965)          88
 2  COc1cccc(-c2n[nH]c3ccc(NS(=O)(=O)c4ccccc4S(C)(=O)=O)cc23)c1 [Example 178]  Aurora2 kinase (Homo sapiens, UniProt O14965)          90
 3  O=S(=O)(Nc1ccc2[nH]nc(-c3cc4ccccc4[nH]3)c2c1)c1ccccc1 [Example 82]  Aurora2 kinase (Homo sapiens, UniProt O14965)         100
 4  O=S(=O)(Nc1ccc2[nH]nc(-c3ccccc3)c2c1)c1cccc2nonc12 [Example 149]  Aurora2 kinase (Homo sapiens, UniProt O14965)         100
 5  O=[N+]([O-])c1cccc(S(=O)(=O)Nc2ccc3[nH]nc(-c4ccccc4)c3c2)c1 [Example 97]  Aurora2 kinase (Homo sapiens, UniProt O14965)          93
 6  Cc1cc2[nH]nc(-c3ccccc3)c2cc1NS(=O)(=O)c1ccccc1S(C)(=O)=O [Example 92]  Aurora2 kinase (Homo sapiens, UniProt O14965)          70
 7  COc1ccc(Cl)cc1-c1n[nH]c2ccc(NS(=O)(=O)c3ccccc3S(C)(=O)=O)cc12 [Example 215]  Aurora2 kinase (Homo sapiens, UniProt O14965)          86
 8  CC1(C)[C@H]2CCC1(CS(=O)(=O)Nc1ccc3[nH]nc(-c4ccccc4)c3c1)C(=O)C2 [Example 148]  Aurora2 kinase (Homo sapiens, UniProt O14965)          77
 9  Nc1ccc(S(=O)(=O)Nc2ccc3[nH]nc(-c4ccccc4)c3c2)cc1 [Example 94]  Aurora2 kinase (Homo sapiens, UniProt O14965)          65
10  CS(=O)(=O)c1ccccc1S(=O)(=O)Oc1ccc2[nH]nc(-c3cc4ccccc4[nH]3)c2c1 [Example 227]  Aurora2 kinase (Homo sapiens, UniProt O14965)         100
11  CS(=O)(=O)c1ccccc1S(=O)(=O)Nc1ccc2[nH]nc(-c3cccc(N)c3)c2c1 [Example 62]  Aurora2 kinase (Homo sapiens, UniProt O14965)         100
12  O=S(=O)(Nc1ccc2[nH]nc(-c3ccccc3)c2c1)c1cccc(Br)c1 [Example 141]  Aurora2 kinase (Homo sapiens, UniProt O14965)          80
13  CS(=O)(=O)c1ccccc1S(=O)(=O)Nc1ccc2[nH]nc(C#Cc3ccccc3)c2c1 [Example 89]  Aurora2 kinase (Homo sapiens, UniProt O14965)          92
14  CS(=O)(=O)c1ccccc1S(=O)(=O)Nc1ccc2[nH]nc(-c3ccc(Br)cc3F)c2c1 [Example 212]  Aurora2 kinase (Homo sapiens, UniProt O14965)          86
15  O=S(=O)(Nc1ccc2[nH]nc(-c3ccccc3)c2c1)c1cccc(C(F)(F)F)c1 [Example 130]  Aurora2 kinase (Homo sapiens, UniProt O14965)          69
16  Nc1cccc(S(=O)(=O)Nc2ccc3[nH]nc(-c4ccccc4)c3c2)c1 [Example 98]  Aurora2 kinase (Homo sapiens, UniProt O14965)          94
